Where do these numbers come from? They come from patent US9828350B2.

Measured IC50 of individual entries
Biological target: recombinant BACE1 protein (Homo sapiens, UniProt P56817)
Sequence (P56817 46-501): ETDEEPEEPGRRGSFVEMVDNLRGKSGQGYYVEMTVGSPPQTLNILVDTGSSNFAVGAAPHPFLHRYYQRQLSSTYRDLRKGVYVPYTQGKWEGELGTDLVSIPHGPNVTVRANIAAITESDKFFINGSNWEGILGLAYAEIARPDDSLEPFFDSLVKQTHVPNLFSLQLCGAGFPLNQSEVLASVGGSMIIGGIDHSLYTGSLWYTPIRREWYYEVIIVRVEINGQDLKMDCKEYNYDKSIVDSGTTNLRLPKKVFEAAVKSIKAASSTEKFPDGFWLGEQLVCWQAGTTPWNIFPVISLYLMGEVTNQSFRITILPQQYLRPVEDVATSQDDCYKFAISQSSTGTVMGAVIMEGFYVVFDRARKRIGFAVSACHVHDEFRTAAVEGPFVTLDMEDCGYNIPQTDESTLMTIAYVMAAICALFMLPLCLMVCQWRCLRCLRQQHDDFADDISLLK
Assay: Biochemical FRET based assay
Conditions: recombinant BACE1 1 μg/ml, 120 minutes at room temperature, pH 5.0; read-out: Biochemical FRET based assay pIC50 (converted)
Please state the figure in nM; there is no need to write the unit.

> print(dat)
                                   compound  value.kind  endpoint.unit  measured
1  NC1=N[C@@](c2cc(NC(=O)c3cnc(OCC(F)(F)F)cn3)ccc2F)(C2CC2)[C@@H](F)OC1        IC50             nM      91.2
2  COc1cnc(C(=O)Nc2cccc(C3(C)N=C(N)COC3(F)C(F)(F)F)c2)cn1 (single isomer, unassigned) [Compound 177]        IC50             nM      25.1
3  CC1(c2cc(-c3cncnc3)c(F)cc2F)N=C(N)COC1F (single isomer, unassigned) [Compound 81]        IC50             nM      8910
4  COc1cncc(-c2cccc(C3(C)N=C(N)COC3C(F)(F)F)c2)c1 (single isomer, unassigned) [Compound 103]        IC50             nM      2090

Item: NC1=N[C@@](c2cc(NC(=O)c3ncc(Cl)cc3F)ccc2F)(C2CC2)[C@H](F)OC1 Test system: recombinant BACE1 protein (Homo sapiens, UniProt P56817) Read-out: IC50 Value: ?
468

Which IC50 is reported with recombinant BACE1 protein (Homo sapiens, UniProt P56817) for this entry: COc1ccc(C(=O)Nc2ccc(F)c([C@@]3(C)N=C(N)CO[C@@H]3F)c2)nc1 ?
26.9

# get_value(readout= IC50, system= recombinant BACE1 protein (Homo sapiens, UniProt P56817)) for COc1cncc(-c2cccc(C3(C)N=C(N)COC3F)c2)c1 (single isomer, unassigned) [Compound 93]
468

I'm curious: which IC50 was measured for C[C@]1(c2cc(-c3cncc(C#N)c3)c(F)cc2F)N=C(N)CO[C@@H]1C(F)(F)F tested on recombinant BACE1 protein (Homo sapiens, UniProt P56817)?
2040

What reported IC50 corresponds to C[C@]1(c2cc(NC(=O)c3cnc(OCC(F)(F)F)cn3)ccc2F)N=C(N)CO[C@]1(F)C(F)(F)F on recombinant BACE1 protein (Homo sapiens, UniProt P56817)?
355

Which measured IC50 belongs to CC1(c2cccc(-c3cncnc3)c2)N=C(N)COC1F (single isomer, unassigned) [Compound 95] , tested on recombinant BACE1 protein (Homo sapiens, UniProt P56817)?
1410

----------
Biological target: recombinant BACE1 protein (Homo sapiens)
Assay: Biochemical FRET based assay
Details: recombinant BACE1 1 μg/ml, 120 minutes at room temperature, pH 5.0; read-out: Biochemical FRET based assay pIC50 (converted)
Classes based on IC50: lower = under 0.07 µM, middle = from 0.07 µM up to 0.1 µM, upper = 0.1 µM and over

Take a look at these entries with their results.
> print(dat)
                                   compound  category.label
1  Cc1cc(Cl)cnc1C(=O)Nc1ccc(F)c([C@@]2(C3CC3)N=C(N)CO[C@@H]2F)c1 [Compound 315]          middle
2  CC1(c2cc(-c3cncnc3)ccc2F)N=C(N)COC1F (single isomer, unassigned) [Compound 127]           upper
3  CCC1(c2cc(NC(=O)c3cnc(OC)cn3)ccc2F)N=C(N)COC1(F)C(F)(F)F (stereo not shown) [Compound 301]          middle

Bin? CC1(c2cccc(NC(=O)c3ncc(Cl)cc3F)c2)N=C(N)COC1(F)C(F)(F)F (single isomer, unassigned) [Compound 173]
lower

For the record CCC1(c2cc(-c3cncnc3)ccc2F)N=C(N)COC1(F)C(F)(F)F (stereo not shown) [Compound 302] , report the class its IC50 corresponds to.
upper

Given C[C@@]1(c2cccc(-c3cncnc3)c2)COC2(CC2)C(N)=N1 [Compound 74] , name the class its IC50 places it in.
upper

# bin lookup: classify NC1=N[C@@](c2cc(NC(=O)c3ccc(Cl)cn3)ccc2F)(C2CC2)[C@H](C(F)(F)F)OC1 [Compound 233] by its IC50
lower

Class for CC1(c2cccc(-c3cncnc3)c2)N=C(N)COC1F (stereo not shown) [Compound 99] ?
upper

// return the class label for COc1ccc(C(=O)Nc2ccc(F)c([C@@]3(C)N=C(N)CO[C@@]3(F)C(F)(F)F)c2)nc1 [Compound 305]
lower
